Where these numbers come from: patent US20220282217A1

Molecular target: T1, HLA class I molecule A02.01
T1 construct: Purified MHC class I complex; also called HLA-A02:01
Assay: competition with radiolabeled reference peptide on purified MHC I

# binder, IC50 / nM
records = [
    ("ITAFFLLDI (also called NDUFC2 (-KCDT14)(-1))", 78.7),
    ("LQVLHECNSL (also called MEK, P124L)", 4720),
    ("QTGVMICAYL (also called PTEN, R130Q)", 9760),
    ("QQQSDLQPPA (also called MYC, E39D)", 646),
    ("ALSASNSCF (also called FRG1B, L52S)", 728),
    ("LLYITAFFL (also called NDUFC2 (-KCDT14)(-1))", 713),
    ("VMAYVMAGV (also called HER2, G776insYVMA)", 2),
    ("ALSASNSCFI (also called FRG1B, L52S)", 226),
]
